# Assay summary: RAM signaling pathway blockade in yeast – S. cerevisiae, Pdr1DBD-CYC8 efflux-inhibited sensitized strain, primary screen (AID 1298);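 further: 0% = DMSO untreated cells without growth and 100% = 10 µM 1-NA-PP1 full growth; higher means more yeast growth rescued from 5-FOA killing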
# Run conditions: S. cerevisiae cbk1-as DSE1-URA3 strain, 5-FOA growth OD615, 2 d; at 50 µM; stronger effect = higher value
Catalogue of RAM network inhibition readings, one per entry.
Parameter measured: RAM network inhibition (%)

INSERT INTO measurements (compound, value_reported) VALUES
  ('Cc1cc2n(c1)CCn1c(C)ccc1-2', 2.57),
  ('CC(C)OC(=O)c1nnc(Cc2ccc(Cl)cc2)o1', 1.93),
  ('COc1cccc(C2c3c(oc4ccccc4c3=O)C(=O)N2CCCN2CCOCC2)c1 (stereo unspecified)', 2.84),
  ('CCSc1nnc(NC(=O)c2cccc(OCc3c(C)noc3C)c2)s1', 4.07),
  ('CC(C)N1C(=O)CCC1C(=O)NCc1ccccc1Cl (stereo unspecified)', 0.01),
  ('COc1cccc(-c2nc(CS(=O)CC(=O)NCc3ccccc3Cl)c(C)o2)c1 (stereo unspecified)', 10),
  ('Cc1c(C(=O)NCC2CCCO2)sc2nc(-c3ccc(F)cc3)cn12 (stereo unspecified)', 3.33),
  ('Cc1sc2nc(SCC(=O)OC(C)C)n(C)c(=O)c2c1C', 2.75),
  ('CCOC(=O)N1CCN(c2ccc3nnnn3n2)CC1', 0.43),
  ('COc1ccc(C(=O)N2CCN(c3ccc(C)cc3)CC2)cc1OC', 3.75),
  ('CC(=O)c1cccc(NC(=O)C2CCCN2S(=O)(=O)c2cccc3cccnc23)c1 (stereo unspecified)', 6.23);

====

# Assay summary: growth suppression of beta-catenin knockout HCT116, pilot screen, human colon tumor cells (AID 823);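 further: 0% = wells killed by 20 µM Hyamine and 100% = untreated DMSO cell wells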
# Run conditions: CellTiter-Glo, 60 h, at 10 µM, stronger effect = lower value
Inconclusive results are not listed.
Parameter measured: viability (%)

INSERT INTO results (molecule, unit_name, value_reported) VALUES
  ('COc1ccc(Br)cc1CNC(=O)C1CCC(=O)N1C(C)C (centres undefined)', '%', 91.7),
  ('O=C(NCCN1CCN(c2cccc(Cl)c2)CC1)C1CCCN(S(=O)(=O)c2cnc[nH]2)C1 (centres undefined)', '%', 91.1),
  ('C=CCn1c(=N)n(CC(O)COc2ccccc2OC)c2ccccc21 (centres undefined)', '%', 73.9),
  ('CCn1c(CNC(=O)c2cccc(C)c2)nc2ccccc21', '%', 99.6),
  ('CN(C)c1ccc(C2C3C(=O)NC(=O)C3ON2c2ccc(Cl)cc2)cc1 (centres undefined)', '%', 102),
  ('O=C(O)c1ccccc1C(=O)c1cccs1', '%', 101),
  ('Oc1c(C(c2cccc(F)c2)N2CCN(Cc3ccccc3)CC2)sc2ncnn12 (centres undefined)', '%', 87.7),
  ('CCC(=O)Nc1ccccc1C(=O)N1CCN(Cc2ccccc2)CC1', '%', 99.8),
  ('c1ccc2[nH]c(-c3ccnc4ccccc34)nc2c1', '%', 102),
  ('COc1ccc(CNc2ccc3cn[nH]c3c2)c(OC)c1OC', '%', 74.7),
  ('O=C(CSc1nc2c(c(=O)n1-c1ccc(Br)cc1)SCC2)NCC1CCCO1 (centres undefined)', '%', 97.9),
  ('CCCC(=O)Nc1nnc(-c2ccc(Cl)s2)o1', '%', 95.6),
  ('O=C(NCC1OCCc2ccccc21)c1ccco1 (centres undefined)', '%', 94.5),
  ('O=C(Cn1cc2c(n1)CCCC2)N1CCc2ccccc21', '%', 66),
  ('O=C(Nc1ccon1)c1cccc(C(F)(F)F)c1', '%', 104),
  ('COC(=O)c1c(NC(=O)CSc2nnnn2-c2ccccc2)sc2c1CCC(C)C2 (centres undefined)', '%', 84.4),
  ('Cc1cc(C(=O)NCc2ccco2)cs1', '%', 106),
  ('COC(=O)c1nc(NC(=O)C(C)(C)C)n[nH]1', '%', 92.7),
  ('CCS(=O)(=O)NCC(c1cccnc1)N1CCN(c2ccccc2OC)CC1 (centres undefined)', '%', 98.3),
  ('COc1ccc(Br)cc1C1CC(=O)N2CN(Cc3ccccc3)CSC2=C1C#N (centres undefined)', '%', 85),
  ('O=C(c1coc2ccccc2c1=O)N1CCN(c2cccc(C(F)(F)F)c2)CC1', '%', 99.8),
  ('COc1ccccc1S(=O)(=O)Cc1ccc(C(=O)NCCN(C)C)o1', '%', 106),
  ('CCC(C)NC(=O)CNC(=O)Cn1c(C)cc2ccccc2c1=O (centres undefined)', '%', 102),
  ('COc1ccc(NC(=O)Nc2ccc3nccnc3c2)cc1', '%', 67.5);

====

# Assay summary: inhibitors of the yeast RAM network, pilot screen, dse1pr::URA3 reporter, 5-FOA selection (AID 869);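 further: 0% = DMSO wells with no growth and 100% = 10 µM 1-NA-PP1 with full growth; RAM network block rescues cells from 5-FOA so hits raise OD615 growth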
# Run conditions: S. cerevisiae dse1pr::URA3 5-FOA growth, OD615, 2 d; at 10 µM; stronger effect = higher value; strain carries analog-sensitive mutant Cbk1 kinase
Parameter measured: inhibition (%)

INSERT INTO assay_data (compound, unit_name, value_reported) VALUES
  ('COc1ccc(COC(=O)C2=C(C)NC(=O)NC2c2ccc(O)c(OC)c2)cc1 (centres undefined)', '%', 0.34),
  ('Cc1nc(SCC(=O)NCc2ccco2)c2oc3ccccc3c2n1', '%', 0.86),
  ('CSC1=NCCN1C(=O)Cc1ccc(F)cc1', '%', 0.725),
  ('CCOC(=O)c1sc(NC(=O)c2cc(S(=O)(=O)N3CCOCC3)ccc2C)nc1C', '%', 0.57),
  ('CC1COC2C(O1)N(S(C)(=O)=O)CCN2S(C)(=O)=O (centres undefined)', '%', 0.68),
  ('CC1(C)CC2CC(C)(CN2C(=O)C23CCC(C)(C(=O)O2)C3(C)C)C1 (centres undefined)', '%', 2.16),
  ('O=C(CNC(=O)c1cnccn1)Nc1ccc(F)c(F)c1F', '%', 2.68),
  ('COCCNC(=O)c1cc2c(=O)n(C)c3ccccc3c2n1C', '%', 2.69),
  ('O=C(NCc1ccc(F)cc1)c1cnc2n(c1=O)CCS2', '%', 0.54),
  ('O=C(COc1ccc(S(=O)(=O)NC2CCCCC2)cc1)Nc1ccc2c(c1)OCCO2', '%', 2.25),
  ('N#Cc1cnn(CC2CCCCC2)c1N', '%', 1.57),
  ('CCOC(=O)C1CCN(S(=O)(=O)c2cccc3nonc23)CC1', '%', 1.46),
  ('Cc1cc(Nc2c(C)cccc2C)n2nc(C)nc2n1', '%', 2.33),
  ('CCOC(=O)N1CCC(NC(=O)C2CCCCN2S(=O)(=O)c2ccc(F)cc2)CC1 (centres undefined)', '%', 0.405),
  ('CCOC(=O)N1CCC(NC(=O)Cn2cc3c(n2)CCCC3)CC1', '%', 2.6),
  ('CCOC(=O)CCSCC(=O)Nc1nnc(C)s1', '%', 0.55),
  ('COc1cc(OC)cc(-c2cc(NC(C)=O)n[nH]2)c1', '%', 0.965),
  ('N=c1oc2ccccc2cc1-c1nc2ccccc2c(=O)[nH]1', '%', 2),
  ('Cn1c(NC(=O)c2ccc(F)c(F)c2)cc(=O)n(C)c1=O', '%', 0.925),
  ('CC1=C(C(=O)OCC(C)C)C(c2ccccc2Cl)NC(=O)N1C (centres undefined)', '%', 0.59),
  ('COc1ccccc1-c1nnc(NC(=O)c2ccccc2F)o1', '%', 1.22),
  ('Cc1cc(Nc2ccc(C(C)C)cc2)n2ncnc2n1', '%', 0.465),
  ('C=CCn1c(N(C)C)nc2c1c(=O)[nH]c(=O)n2C', '%', 2.38),
  ('Cn1c(=O)c2c(SCC(=O)N3CCN(c4ccccc4)CC3)nc(C3CC3)nc2n(C)c1=O', '%', 3.71);

====

# Assay summary: RAM signaling pathway blockade in yeast – S. cerevisiae, Pdr1DBD-CYC8 efflux-inhibited sensitized strain, primary screen (AID 1298);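 further: 0% = DMSO untreated cells without growth and 100% = 10 µM 1-NA-PP1 full growth; higher means more yeast growth rescued from 5-FOA killing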
# Run conditions: S. cerevisiae cbk1-as DSE1-URA3 strain, 5-FOA growth OD615, 2 d; at 50 µM; stronger effect = higher value
Parameter measured: RAM network inhibition (%)

INSERT INTO measurements (compound, value_reported) VALUES
  ('CCOC(=O)C1=C(C)NC(=O)NC1c1ccc(N(CC)CC)cc1 (centres undefined)', 1.67),
  ('Cc1ccc(S(=O)(=O)Nc2ccc3nc(N)sc3c2)cc1', 2.92),
  ('Nc1ccc(-c2nc3ccc(N)cc3o2)cc1', 6.51),
  ('CCCCCOC(=O)C1=C(C)NC(=O)NC1c1ccccc1OCC (centres undefined)', 1.97),
  ('COc1ccc(OCC(=O)N(C)Cc2ccccc2)cc1', 0.61),
  ('Cc1ccc(C)c(SCC(=O)OCC(=O)Nc2ccc(S(=O)(=O)N3CCOCC3)cc2)c1', 5.86),
  ('OCCOCCn1c(-c2ccccc2)nc(=S)c2c1CCCC2', 6.53),
  ('COc1cc(C2C(C(=O)Nc3ccccc3OC)=C(C)Nc3ncnn32)ccc1O (centres undefined)', -0.99),
  ('Cc1ccc(N2CC(c3nc4ccccc4[nH]3)CC2=O)c(C)c1 (centres undefined)', 0.01),
  ('CCC(=O)Nc1nc2c(OC)ccc(OC)c2s1', 2.34),
  ('O=C(Cc1n[nH]c(=O)c2ccccc12)NCc1ccccn1', 2.08),
  ('CCC(=O)N1c2ccccc2-c2nnc(SC)nc2OC1c1ccc(N(C)C)cc1 (centres undefined)', 1.82),
  ('Clc1ccc(OCc2nnc(-c3ccccc3Br)o2)c(Cl)c1', 14),
  ('Cc1nnc(NC(=O)CSc2nnc(Cc3cccn3C)n2C)s1', 1.93),
  ('Cc1noc(C(=O)N2CC3(C)CC2CC(C)(C)C3)c1Cl (centres undefined)', 5.28),
  ('CN1CCN(c2ccccc2NC(=O)Cc2cn(C)c3ccccc23)CC1', 2.59),
  ('CC(=O)OC(/C(O)=C(\C#N)c1nc2ccccc2[nH]1)c1ccccc1 (centres undefined)', 3.42),
  ('CC1CCCN(Cc2nc3c(c(=O)n(C)c(=O)n3C)n2Cc2c(F)cccc2Cl)C1 (centres undefined)', 10.9),
  ('CCc1nnc(NC(=O)CSc2nc3c(c(=O)n2CC)SC(C)C3)s1 (centres undefined)', 6.11),
  ('CCCC(=O)NCCCc1nc2ccccc2[nH]1', 2.55),
  ('Cc1cc(C)n(-c2nncc(-c3ccccc3)n2)n1', 0.92),
  ('O=C(O)C1CCCN1S(=O)(=O)c1ccc(Cl)c(Cl)c1 (centres undefined)', 1.89),
  ('Cc1[nH]nc2c1/C(=N\O)CC(C)(C)C2', -1.33),
  ('CCOC(=O)N1CCC(Nc2c(OCC)c(=O)c2=O)CC1', 5.22);
